- target-or-test-system: NK-2 receptors (Cavia porcellus)
- Construct: the NK-2 receptors present in the gall-bladder preparations; from tissue; host or cells: Pirbright-White guinea pig: isolated gall-bladder (A2); anaesthetised whole animal (A3)
- Sequence (Q64077 whole entry): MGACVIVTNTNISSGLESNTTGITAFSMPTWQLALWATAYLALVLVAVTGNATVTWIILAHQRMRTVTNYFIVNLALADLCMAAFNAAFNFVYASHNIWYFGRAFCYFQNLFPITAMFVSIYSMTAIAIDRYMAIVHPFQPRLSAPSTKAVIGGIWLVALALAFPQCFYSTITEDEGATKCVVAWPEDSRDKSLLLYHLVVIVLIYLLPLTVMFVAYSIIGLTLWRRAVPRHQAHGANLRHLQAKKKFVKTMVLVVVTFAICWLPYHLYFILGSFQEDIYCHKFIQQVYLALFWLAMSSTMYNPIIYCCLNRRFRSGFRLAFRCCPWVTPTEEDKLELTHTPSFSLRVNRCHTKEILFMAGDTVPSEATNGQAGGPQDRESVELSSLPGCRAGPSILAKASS
- test-protocol: NK-2-receptor-antagonistic effectiveness in vivo in anaesthetised guinea pigs (NKA test stimulus)
- Design: species or system guinea pig
- condition-set: guinea pig, po; from AUC over 180 min after administration; NK-2-mediated drop in blood pressure; read-out: ED50 Blood pressure, p.o. AUC over 180 min.
This section presents molecules with their documented ED50 values.
Give the value, in units of µmol/kg, as a plain number.

Example cases with answers are listed next.
INSERT INTO measurements (molecule, target_or_test_system, measurement_type, reported_result) VALUES
  ('CN(C[C@@H](CCN1CCN(C(c2ccsc2)[C@H](O)[C@@H](O)[C@H](O)CO)CC1)c1ccc(Cl)c(Cl)c1)C(=O)c1ccccc1 (some centres unmarked)', 'NK-2 receptors (Cavia porcellus)', 'ED50', 2.7),
  ('CN(C[C@@H](CCN1CCN(C(c2ccsc2)[C@H](O)CO)CC1)c1ccc(Cl)c(Cl)c1)C(=O)c1ccccc1 (some centres unmarked)', 'NK-2 receptors (Cavia porcellus)', 'ED50', 7.6),
  ('CN(C[C@@H](CCN1CCN(C(c2ccsc2)[C@H](O)[C@H](O)CO)CC1)c1ccc(Cl)c(Cl)c1)C(=O)c1ccccc1 (some centres unmarked)', 'NK-2 receptors (Cavia porcellus)', 'ED50', 8.6),
  ('CC(=O)OC[C@@H](OC(C)=O)[C@H](OC(C)=O)[C@@H](OC(C)=O)C(c1ccsc1)N1CCN(CC[C@H](CN(C)C(=O)c2ccccc2)c2ccc(Cl)c(Cl)c2)CC1 (some centres unmarked)', 'NK-2 receptors (Cavia porcellus)', 'ED50', 9.4);

Exam item: Look up ED50: CN(CC(CCN1CCN(C(c2ccco2)[C@H](O)[C@@H](O)[C@H](O)CO)CC1)c1ccc(Cl)c(Cl)c1)C(=O)c1ccccc1 (mixture of isomers)
Marked response: 24
